test system: K. pneumoniae ATCC 13833; experiment: Chequerboard analysis with colistin; type: cell-based, Klebsiella pneumoniae; conditions: combination with colistin; synergy when ≤0.5
Entries annotated with measured Average FIC Index
Experimental Endpoint: Average FIC Index

{"columns": ["Compound", "Measured On", "Obs Value"],
 "data": [
  ["O=C(NCc1ccc2c(c1)OCO2)c1cnn(-c2ccccc2)c1-n1cccc1", "K. pneumoniae ATCC 13833", 0.5],
  ["Cc1c(C(=O)Nc2ccc(O)cc2)nn(-c2ccc(Cl)cc2)c1-n1cccc1", "K. pneumoniae ATCC 13833", 0.31],
  ["CC(C)(C)OC(=O)[C@H](Cc1ccccc1)NC(=O)c1cnn(-c2ccccc2)c1-n1cccc1", "K. pneumoniae ATCC 13833", 0.32],
  ["Cc1c(C(=O)Nc2ccc(S(C)(=N)=O)cc2)nn(-c2ccc(Cl)cc2)c1-n1cccc1 (centres unmarked)", "K. pneumoniae ATCC 13833", 0.39],
  ["Cc1c(C(=O)N(C)CCN(C)C)nn(-c2ccc(Cl)cc2)c1-n1cccc1", "K. pneumoniae ATCC 13833", 0.5]
]}

This collection of values is drawn from paper PMC9774939.
